protocol_details: Pharmacokinetics in patients
Assay type: in vivo
experimental_parameters: both sexes, plasma; Human (M/F), 0.135 mg/kg (Recommended Dose 5 mg/m2), 3-h intravenous infusion
measured_metric: Cmax (ng/mL)

INSERT INTO assay_data (molecule, readout_unit, meas_value) VALUES
  ('CC[C@H](C)[C@H]1NC(=O)[C@@H](NC(=O)[C@@H](CC(C)C)N(C)C(=O)[C@@H]2CCCN2C(=O)C(C)=O)[C@@H](C)OC(=O)[C@H](Cc2ccc(OC)cc2)N(C)C(=O)[C@@H]2CCCN2C(=O)[C@H](CC(C)C)NC(=O)[C@@H](C)C(=O)[C@H](C(C)C)OC(=O)C[C@@H]1O [plitidepsin]', 'ng/mL', 29.1);

* * *

protocol_details: Pharmacokinetics in patients
Format: in vivo
experimental_parameters: both sexes, plasma; Human (M/F), 0.135 mg/kg (Recommended Dose 5 mg/m2), 3-h intravenous infusion; read-out: t½
measured_metric: half-life

INSERT INTO results (compound, meas_value) VALUES
  ('CC[C@H](C)[C@H]1NC(=O)[C@@H](NC(=O)[C@@H](CC(C)C)N(C)C(=O)[C@@H]2CCCN2C(=O)C(C)=O)[C@@H](C)OC(=O)[C@H](Cc2ccc(OC)cc2)N(C)C(=O)[C@@H]2CCCN2C(=O)[C@H](CC(C)C)NC(=O)[C@@H](C)C(=O)[C@H](C(C)C)OC(=O)C[C@@H]1O [plitidepsin]', '20 to 80 h');

* * *

protocol_details: Pharmacokinetics in patients
Type: in vivo
experimental_parameters: both sexes, plasma; Human (M/F), 0.135 mg/kg (Recommended Dose 5 mg/m2), 3-h intravenous infusion
measured_metric: AUC(0-inf)

INSERT INTO assay_data (compound, meas_value) VALUES
  ('CC[C@H](C)[C@H]1NC(=O)[C@@H](NC(=O)[C@@H](CC(C)C)N(C)C(=O)[C@@H]2CCCN2C(=O)C(C)=O)[C@@H](C)OC(=O)[C@H](Cc2ccc(OC)cc2)N(C)C(=O)[C@@H]2CCCN2C(=O)[C@H](CC(C)C)NC(=O)[C@@H](C)C(=O)[C@H](C(C)C)OC(=O)C[C@@H]1O [plitidepsin]', '256 ng·h/mL');

* * *

protocol_details: Pharmacokinetics in patients
Type: in vivo
experimental_parameters: both sexes, plasma; Human (M/F), 0.135 mg/kg (Recommended Dose 5 mg/m2), 3-h intravenous infusion
measured_metric: clearance

INSERT INTO assay_data (molecule, meas_value) VALUES
  ('CC[C@H](C)[C@H]1NC(=O)[C@@H](NC(=O)[C@@H](CC(C)C)N(C)C(=O)[C@@H]2CCCN2C(=O)C(C)=O)[C@@H](C)OC(=O)[C@H](Cc2ccc(OC)cc2)N(C)C(=O)[C@@H]2CCCN2C(=O)[C@H](CC(C)C)NC(=O)[C@@H](C)C(=O)[C@H](C(C)C)OC(=O)C[C@@H]1O [plitidepsin]', '0.7 to 0.9 L/h/kg');

* * *

protocol_details: Cell biomass (DAPI) in Vero-E6 cells
Format: cell-based, African green monkey
experimental_parameters: African green monkey, Vero-E6 cells, VeroE6 cells, read-out: CC50 based on cell biomass
measured_metric: CC50 at 48 h (µM)

INSERT INTO assay_data (structure_as_smiles, meas_value) VALUES
  ('CC[C@H](C)[C@H]1NC(=O)[C@@H](NC(=O)[C@@H](CC(C)C)N(C)C(=O)[C@@H]2CCCN2C(=O)C(C)=O)[C@@H](C)OC(=O)[C@H](Cc2ccc(OC)cc2)N(C)C(=O)[C@@H]2CCCN2C(=O)[C@H](CC(C)C)NC(=O)[C@@H](C)C(=O)[C@H](C(C)C)OC(=O)C[C@@H]1O', 2.33);

From: patent US20230295236A1
